Molecular target: Cell division cycle 7-related protein kinase (Homo sapiens, UniProt O00311); also: in the data inactive means no Kd found up to 30 µM
Sequence (O00311 whole entry): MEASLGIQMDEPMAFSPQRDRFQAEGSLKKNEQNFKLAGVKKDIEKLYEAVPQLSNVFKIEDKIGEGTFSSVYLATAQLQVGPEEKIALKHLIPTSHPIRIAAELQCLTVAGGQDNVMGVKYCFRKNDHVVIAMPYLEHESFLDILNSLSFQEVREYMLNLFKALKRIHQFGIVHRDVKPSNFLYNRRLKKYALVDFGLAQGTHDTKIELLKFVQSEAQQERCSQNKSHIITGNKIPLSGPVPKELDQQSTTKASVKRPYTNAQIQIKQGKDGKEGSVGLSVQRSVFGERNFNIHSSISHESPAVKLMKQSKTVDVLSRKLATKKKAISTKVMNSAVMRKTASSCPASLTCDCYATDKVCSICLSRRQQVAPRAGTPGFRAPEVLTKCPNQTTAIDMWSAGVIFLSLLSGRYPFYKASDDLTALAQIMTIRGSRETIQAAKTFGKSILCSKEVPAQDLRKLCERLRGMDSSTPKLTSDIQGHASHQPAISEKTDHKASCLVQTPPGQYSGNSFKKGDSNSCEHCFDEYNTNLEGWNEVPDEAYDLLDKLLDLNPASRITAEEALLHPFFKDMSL
Active and inactive are the calls of the source.
VALUE KIND: Kd

The examples below pair each entry with its known result.
COc1cc([C@@H]2c3cc4c(cc3[C@H](O)[C@H]3COC(=O)[C@@H]23)OCO4)cc(OC)c1OC
> 30 µM (inactive)
Cn1cc(-c2cnc3ccc4ccc(CS(=O)(=O)NCc5ccccn5)cc4c(=O)c3c2)cn1
> 30 µM (inactive)
C[C@@H](N)c1ccc(C(=O)Nc2ccnc3[nH]ccc23)cc1
> 30 µM (inactive)

// returns Kd for `N#CC1(c2ccc(NC(=O)c3cccnc3NCc3ccncc3)cc2)CCCC1` with Cell division cycle 7-related protein kinase (Homo sapiens, UniProt O00311); value = > 30 µM (inactive)

// returns Kd for `CCn1c(C(=O)N(C2CC2)C2CC2)cc2c3c(ncn3C)c(Nc3cc(C)n(C)n3)nc21` with Cell division cycle 7-related protein kinase (Homo sapiens, UniProt O00311); value = > 30 µM (inactive)

// returns Kd for `NC1(c2ccc(-c3nc4ccn5c(=O)[nH]nc5c4cc3-c3ccccc3)cc2)CCC1` with Cell division cycle 7-related protein kinase (Homo sapiens, UniProt O00311); value = > 30 µM (inactive)

// returns Kd for `Cc1cnc(NC(=O)Nc2cc(Br)c(C)cc2OC[C@@H]2CNCCO2)cn1` with Cell division cycle 7-related protein kinase (Homo sapiens, UniProt O00311); value = > 30 µM (inactive)

// returns Kd for `Cn1cc(-c2cnn3c(N)c(Br)c([C@@H]4CCCNC4)nc23)cn1` with Cell division cycle 7-related protein kinase (Homo sapiens, UniProt O00311); value = > 30 µM (inactive)

====

Target: UniProt:Q13873
Sequence (Q13873 whole entry): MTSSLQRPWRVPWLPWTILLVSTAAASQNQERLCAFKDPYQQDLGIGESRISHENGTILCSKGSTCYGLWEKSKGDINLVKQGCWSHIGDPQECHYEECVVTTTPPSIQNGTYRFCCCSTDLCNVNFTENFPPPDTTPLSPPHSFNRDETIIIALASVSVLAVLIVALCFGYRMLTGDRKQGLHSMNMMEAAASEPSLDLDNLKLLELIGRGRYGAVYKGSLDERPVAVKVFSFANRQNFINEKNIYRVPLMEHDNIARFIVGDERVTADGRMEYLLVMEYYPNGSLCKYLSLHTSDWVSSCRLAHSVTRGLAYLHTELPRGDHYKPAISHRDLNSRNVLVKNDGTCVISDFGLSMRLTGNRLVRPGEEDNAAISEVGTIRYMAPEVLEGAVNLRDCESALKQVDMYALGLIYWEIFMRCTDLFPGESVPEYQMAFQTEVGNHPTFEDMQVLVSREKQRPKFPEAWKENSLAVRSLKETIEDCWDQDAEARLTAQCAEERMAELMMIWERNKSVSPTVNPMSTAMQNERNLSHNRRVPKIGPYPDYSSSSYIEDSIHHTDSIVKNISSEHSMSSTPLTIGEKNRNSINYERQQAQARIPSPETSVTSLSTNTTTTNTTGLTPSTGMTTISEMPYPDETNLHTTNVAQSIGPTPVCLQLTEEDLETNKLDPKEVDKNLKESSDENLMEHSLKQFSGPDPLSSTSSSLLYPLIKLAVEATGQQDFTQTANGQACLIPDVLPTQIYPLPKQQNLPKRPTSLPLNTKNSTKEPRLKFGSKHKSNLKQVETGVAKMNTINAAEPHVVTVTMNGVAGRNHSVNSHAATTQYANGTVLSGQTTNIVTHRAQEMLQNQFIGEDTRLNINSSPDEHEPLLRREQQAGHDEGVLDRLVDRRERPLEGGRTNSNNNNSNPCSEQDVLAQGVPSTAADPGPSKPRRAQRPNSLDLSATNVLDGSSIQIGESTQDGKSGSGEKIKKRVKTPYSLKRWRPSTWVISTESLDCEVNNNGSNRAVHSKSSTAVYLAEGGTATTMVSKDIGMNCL
The source made the active and inactive calls.
Please state which outcome applies, choosing from yes (1) (active), no (0) (inactive)

# count of solved cases: 3
CNC(=O)c1cccc2cc(Oc3ccnc4cc(OCC5(N)CC5)c(OC)cc34)ccc12 [LUCITANIB]
no (0)
O=c1[nH]ccc2cc(OC3CCNCC3)ccc12 [SAR-407899 FREE BASE]
no (0)
NC1(c2ccc(-c3nc4ccn5c(=O)[nH]nc5c4cc3-c3ccccc3)cc2)CCC1 [MK-2206]
no (0)

So what was the verdict on CC(C)c1cc(CNc2nc(Nc3cc(C4CC4)[nH]n3)cc(N3CCN(C)CC3)n2)on1 [XL-228] in this test?
no (0)

So what was the verdict on Cc1nc(Nc2n[nH]c3c2CN(C(=O)N[C@H](CN(C)C)c2ccccc2)C3(C)C)c2sccc2n1 [PF-03758309] in this test?
no (0)

So what was the verdict on `C[C@@H](Oc1cc(C(=O)Nc2ccc(C(=O)N3CCN(C)CC3)cc2)nnc1N)c1c(Cl)ccc(F)c1Cl` in this test?
no (0)

So what was the verdict on C#Cc1cccc(Nc2ncnc3cc(OC)c(OCCCCCCC(=O)NO)cc23)c1 [CUDC-101] in this test?
no (0)

So what was the verdict on CC(C)(C)c1nc(-c2cccc(NS(=O)(=O)c3c(F)cccc3F)c2F)c(-c2ccnc(N)n2)s1 [DABRAFENIB] in this test?
no (0)

So what was the verdict on Cn1cc(-c2cnc3ccc4ccc(CS(=O)(=O)NCc5ccccn5)cc4c(=O)c3c2)cn1 [MK-8033] in this test?
no (0)

So what was the verdict on C[C@@H](N)c1ccc(C(=O)Nc2ccnc3[nH]ccc23)cc1 [Y-39983] in this test?
no (0)

So what was the verdict on CNC(=O)c1cc(Oc2ccc(NC(=O)Nc3cc(C(C)(C)C)nn3-c3ccc4ncccc4c3)c(F)c2)ccn1 [REBASTINIB] in this test?
no (0)

So what was the verdict on NC(=O)Nc1cc(-c2cccc(F)c2)sc1C(=O)N[C@H]1CCCNC1 [AZD-7762] in this test?
no (0)

So what was the verdict on CN1C/C=C/CCOc2cccc(c2)-c2ccnc(n2)Nc2cccc(c2)C1 [ZOTIRACICLIB] in this test?
no (0)

So what was the verdict on `Cc1nc2cc(-c3nn(C(C)C)c4ncnc(N)c34)ccc2o1` in this test?
no (0)

So what was the verdict on COc1cc([C@@H]2c3cc4c(cc3[C@H](O)[C@H]3COC(=O)[C@@H]23)OCO4)cc(OC)c1OC [AXL-1717] in this test?
no (0)

====

Biological target: Serine/threonine-protein kinase 4 (Homo sapiens); also: in the data inactive means no Kd found up to 30 µM
Sequence (Q13043 whole entry): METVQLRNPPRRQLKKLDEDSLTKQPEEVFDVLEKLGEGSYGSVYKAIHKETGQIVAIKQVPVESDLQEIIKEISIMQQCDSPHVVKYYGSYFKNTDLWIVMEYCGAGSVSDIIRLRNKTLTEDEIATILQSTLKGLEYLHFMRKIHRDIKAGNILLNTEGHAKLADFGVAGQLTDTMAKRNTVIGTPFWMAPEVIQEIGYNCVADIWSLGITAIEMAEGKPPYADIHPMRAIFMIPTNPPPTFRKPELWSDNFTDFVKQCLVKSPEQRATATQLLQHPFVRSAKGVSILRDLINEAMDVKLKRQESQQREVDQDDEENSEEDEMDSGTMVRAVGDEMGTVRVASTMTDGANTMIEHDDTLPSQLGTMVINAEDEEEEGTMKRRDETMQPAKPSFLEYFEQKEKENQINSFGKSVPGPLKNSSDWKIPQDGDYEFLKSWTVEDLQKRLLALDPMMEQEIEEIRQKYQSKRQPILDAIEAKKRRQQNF
Activity calls are given as the source filed them.
Please state which outcome applies, choosing from 1.0 (active), 0.0 (inactive)

COc1ccc(S(=O)(=O)N(C(C)=O)c2ccccc2/C=C/c2cc[n+]([O-])cc2)cc1 [HMN-214]
0.0
Cc1nc2cc(-c3nn(C(C)C)c4ncnc(N)c34)ccc2o1
0.0
CCNC(=O)C#Cc1ccc2c(c1)NC(=O)/C2=C(\Nc1ccc(CN(C)C)cc1)c1ccccc1
1.0

So what was the verdict on C#Cc1cccc(Nc2ncnc3cc(OC)c(OCCCCCCC(=O)NO)cc23)c1 [CUDC-101] in this test?
0.0

So what was the verdict on C[C@@H](NC(=O)c1ncnc(N)c1Cl)c1ncc(C(=O)Nc2cc(C(F)(F)F)c(Cl)cn2)s1 [TOVORAFENIB] in this test?
0.0

So what was the verdict on Cc1cc(C(=O)NOCCO)c(Nc2ccc(I)cc2F)n(C)c1=O [AZD-8330] in this test?
0.0

So what was the verdict on NC(=O)c1c(OCc2c(F)cc(Br)cc2F)nsc1NC(=O)NCCCCN1CCCC1 [OSI-632] in this test?
0.0

So what was the verdict on O=C(Nc1nc2cccc(-c3ccc(CN4CCS(=O)(=O)CC4)cc3)n2n1)C1CC1 [FILGOTINIB] in this test?
0.0

====

Molecular target: AP2-associated protein kinase 1 (Homo sapiens); also: in the data inactive means no Kd found up to 30 µM
Sequence (Q2M2I8 whole entry): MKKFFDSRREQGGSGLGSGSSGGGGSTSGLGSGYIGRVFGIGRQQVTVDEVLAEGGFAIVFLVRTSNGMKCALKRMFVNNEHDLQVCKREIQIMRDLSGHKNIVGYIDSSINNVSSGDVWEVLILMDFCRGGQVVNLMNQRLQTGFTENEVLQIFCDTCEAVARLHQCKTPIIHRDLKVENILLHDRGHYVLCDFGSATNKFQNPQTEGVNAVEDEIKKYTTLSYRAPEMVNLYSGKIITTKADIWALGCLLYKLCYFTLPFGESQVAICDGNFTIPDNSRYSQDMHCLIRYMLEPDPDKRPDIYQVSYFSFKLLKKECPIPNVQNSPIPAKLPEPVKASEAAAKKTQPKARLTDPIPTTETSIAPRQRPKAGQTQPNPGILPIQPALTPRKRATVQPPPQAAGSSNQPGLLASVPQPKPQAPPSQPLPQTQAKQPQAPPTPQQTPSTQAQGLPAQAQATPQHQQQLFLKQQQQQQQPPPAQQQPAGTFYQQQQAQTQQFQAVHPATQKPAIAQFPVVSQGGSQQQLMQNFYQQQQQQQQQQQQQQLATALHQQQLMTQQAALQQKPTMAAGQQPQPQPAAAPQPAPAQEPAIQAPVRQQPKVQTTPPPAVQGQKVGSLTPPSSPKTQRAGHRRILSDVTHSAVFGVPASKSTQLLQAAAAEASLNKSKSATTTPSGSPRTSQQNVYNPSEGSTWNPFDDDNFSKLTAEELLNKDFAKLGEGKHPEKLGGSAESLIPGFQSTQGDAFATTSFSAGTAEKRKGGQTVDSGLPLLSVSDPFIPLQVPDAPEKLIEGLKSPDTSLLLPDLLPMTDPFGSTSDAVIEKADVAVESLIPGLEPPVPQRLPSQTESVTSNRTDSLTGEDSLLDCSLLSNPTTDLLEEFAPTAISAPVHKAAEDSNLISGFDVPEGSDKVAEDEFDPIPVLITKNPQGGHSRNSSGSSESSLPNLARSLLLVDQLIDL
Activity calls are given as the source filed them.
Please state which outcome applies, choosing from true for active, false for inactive

CN1CCN(CCOc2cc(OC3CCOCC3)c3c(Nc4c(Cl)ccc5c4OCO5)ncnc3c2)CC1 [SARACATINIB]
false
C[C@@H](NC(=O)c1ncnc(N)c1Cl)c1ncc(C(=O)Nc2cc(C(F)(F)F)c(Cl)cn2)s1 [TOVORAFENIB]
false
CCS(=O)(=O)c1cccc(-c2cc(C(=O)NC3CCN(C)CC3)c(C)c3[nH]c4ncc(C)cc4c23)c1 [TAK-901]
false
Cc1nc2cc(-n3ncc(C(=O)c4cc5ccccc5[nH]4)c3N)ccc2[nH]1 [FGFR INHIBITOR DEBIO 1347]
false
CNC(=O)c1nn(C)c2c1C(C)(C)Cc1cnc(Nc3ccc(N4CCN(C)CC4)cc3)nc1-2 [MILCICLIB]
true
Cc1csc(-c2nnc(Nc3ccc(Oc4ncccc4-c4ccnc(N)n4)cc3)c3ccccc23)c1 [AMG-900]
false
O=C(Nc1nc2cccc(-c3ccc(CN4CCS(=O)(=O)CC4)cc3)n2n1)C1CC1 [FILGOTINIB]
true
Nc1ncnc2c1c(-c1cccc(OCc3ccccc3)c1)cn2[C@H]1C[C@@H](CN2CCC2)C1 [AEW-541]
false
C[C@@H](Oc1cc(C(=O)Nc2ccc(C(=O)N3CCN(C)CC3)cc2)nnc1N)c1c(Cl)ccc(F)c1Cl
true
C#Cc1cccc(Nc2ncnc3cc(OC)c(OCCCCCCC(=O)NO)cc23)c1 [CUDC-101]
false

So what was the verdict on COCC(=O)NC/C=C/c1ccc2ncnc(Nc3ccc(Oc4ccc(C)nc4)c(C)c3)c2c1 [CP-724714] in this test?
false

So what was the verdict on N#CC1(c2ccc(NC(=O)c3cccnc3NCc3ccncc3)cc2)CCCC1 [RIVOCERANIB] in this test?
false

====

Biological target: UniProt:P36897
Sequence (P36897 whole entry): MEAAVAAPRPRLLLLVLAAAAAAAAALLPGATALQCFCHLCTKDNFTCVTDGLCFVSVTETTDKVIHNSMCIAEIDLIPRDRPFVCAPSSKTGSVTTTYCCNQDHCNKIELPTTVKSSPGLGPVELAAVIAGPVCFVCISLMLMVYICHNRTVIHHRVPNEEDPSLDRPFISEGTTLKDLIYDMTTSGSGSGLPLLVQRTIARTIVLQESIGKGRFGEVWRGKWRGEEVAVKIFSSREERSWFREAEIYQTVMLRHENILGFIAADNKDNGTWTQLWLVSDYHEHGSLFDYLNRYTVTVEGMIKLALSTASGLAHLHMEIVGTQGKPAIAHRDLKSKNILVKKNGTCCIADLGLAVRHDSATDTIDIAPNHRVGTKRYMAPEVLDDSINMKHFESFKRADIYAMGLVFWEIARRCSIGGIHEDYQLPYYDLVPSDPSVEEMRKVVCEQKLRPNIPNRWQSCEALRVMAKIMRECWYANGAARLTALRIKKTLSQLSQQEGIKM
The source made the active and inactive calls.
Please state which outcome applies, choosing from active, inactive

# count of solved cases: 6
Cn1cc(-c2cnn3c(N)c(Br)c([C@@H]4CCCNC4)nc23)cn1
inactive
O=C(Nc1nc2cccc(-c3ccc(CN4CCS(=O)(=O)CC4)cc3)n2n1)C1CC1
inactive
O=C1NC(=O)[C@@H](c2cn3c4c(cccc24)CCC3)[C@@H]1c1c[nH]c2ccccc12 [TIVANTINIB]
inactive
Cc1nc(Nc2n[nH]c3c2CN(C(=O)N[C@H](CN(C)C)c2ccccc2)C3(C)C)c2sccc2n1
inactive
Cc1nc2cc(-c3nn(C(C)C)c4ncnc(N)c34)ccc2o1
active
COc1cc([C@@H]2c3cc4c(cc3[C@H](O)[C@H]3COC(=O)[C@@H]23)OCO4)cc(OC)c1OC
inactive

So what was the verdict on `NC(=O)c1c(OCc2c(F)cc(Br)cc2F)nsc1NC(=O)NCCCCN1CCCC1` in this test?
active

So what was the verdict on `C=CC(=O)N1CCC[C@H](n2c(=O)n(-c3ccc(Oc4ccccc4)cc3)c3c(N)ncnc32)C1` in this test?
inactive

So what was the verdict on `FC(F)(F)c1ccc(/C=C/c2nc(COc3ccc(CCCCn4ccnn4)cc3)co2)cc1` in this test?
inactive

So what was the verdict on `CN(C[C@@H]1COCCO1)S(=O)(=O)Nc1ccc2ccc3ncc(-c4cnn(C)c4)cc3c(=O)c2c1` in this test?
inactive

So what was the verdict on `Cc1cc(C(=O)NOCCO)c(Nc2ccc(I)cc2F)n(C)c1=O` in this test?
inactive

So what was the verdict on `Cn1cc(-c2cnc3ccc4ccc(CS(=O)(=O)NCc5ccccn5)cc4c(=O)c3c2)cn1` in this test?
inactive

So what was the verdict on `CNC(=O)c1cc(Oc2ccc(NC(=O)Nc3cc(C(C)(C)C)nn3-c3ccc4ncccc4c3)c(F)c2)ccn1` in this test?
inactive

So what was the verdict on O=c1[nH]ccc2cc(OC3CCNCC3)ccc12 [SAR-407899 FREE BASE] in this test?
inactive

So what was the verdict on `CN1CCN(CCOc2cc(OC3CCOCC3)c3c(Nc4c(Cl)ccc5c4OCO5)ncnc3c2)CC1` in this test?
active

So what was the verdict on `NC(=O)Nc1cc(-c2cccc(F)c2)sc1C(=O)N[C@H]1CCCNC1` in this test?
inactive

So what was the verdict on `Cc1csc(-c2nnc(Nc3ccc(Oc4ncccc4-c4ccnc(N)n4)cc3)c3ccccc23)c1` in this test?
inactive
